Test system: HCC1569
Experiment: H1.0 immunofluorescence intensity relative to DMSO (% of DMSO); higher = stronger H1.0 induction, active = 140 or more
Settings: concentration: 10 µM; 24 h
H1.0 immunofluorescence intensity reference

compound="CC(C)Cc1ccc(C(C)C(=O)O)cc1 (racemic)" result="97.7 (inactive)"
compound="C=C1OC(CO)(n2cnc3c(N)ncnc32)C(O)C1O (centres undefined) [Decoyinine]" result="88.3 (inactive)"
compound=CC(C)S(=O)(=O)N[C@H]1CCOC[C@@H]1c1ccc(-c2ccc(C#N)s2)cc1 result="104 (inactive)"

*Q* Which H1.0 immunofluorescence intensity reading was recorded for the compound C[N+](C)(C)CCC(=O)c1cccc2ccccc12.[I-] [2-(alpha-Naphthoyl)ethyltrimethylammonium iodide] ?
*A* 91.6 (inactive)

*Q* What do we get for `C[C@]12CCC(=O)C=C1CC[C@@H]1[C@@H]2[C@@H](O)C[C@@]2(C)[C@H]1CC[C@]2(O)C(=O)COC(=O)CCC(=O)[O-].[Na+]` ?
*A* 103 (inactive)

*Q* What do we get for COc1cc2c(CCNC(C)=O)c[nH]c2cc1Cl [6-Chloromelatonin] ?
*A* 90 (inactive)

*Q* What do we get for CCCCCCCCC=CCCCCCCCCCCCC(=O)O [13(Z)-Docosenoic acid] ?
*A* 102 (inactive)

*Q* What do we get for c1coc(CNc2ncnc3nc[nH]c23)c1 [Kinetin] ?
*A* 92.8 (inactive)

*Q* What do we get for CSc1ccc(C(=O)c2[nH]c(=O)[nH]c2C)cc1 [Enoximone] ?
*A* 105 (inactive)

----------
Tested on: HCC1569
Experiment: H1.0 immunofluorescence intensity relative to DMSO (% of DMSO); higher = stronger H1.0 induction, active = 140 or more
Conditions: concentration: 10 µM; 24 h
H1.0 immunofluorescence intensity reference
Reply with just the number.

*Q* Hi! What's the reported H1.0 immunofluorescence intensity for `CC(=O)Nc1nc(C)c(S(=O)(=O)Nc2ccc(C(O)(C(F)(F)F)C(F)(F)F)cc2)s1` on HCC1569?
*A* 111

*Q* What do we get for CC(=O)NC(CSCC=C(C)CCC=C(C)CCC=C(C)C)C(=O)O (stereo not drawn) ?
*A* 96.3

*Q* What do we get for COc1ccc(CC(N)C(=O)NC2C(CO)OC(n3cnc4c(N(C)C)ncnc43)C2O)cc1 (stereo not drawn) ?
*A* 90.9

*Q* What do we get for `CN1C(C(=O)Nc2ccccn2)=C(O)c2sccc2S1(=O)=O` ?
*A* 93.3

*Q* What do we get for COc1ccccc1OCC(O)CN1CCN(CC(=O)Nc2c(C)cccc2C)CC1.Cl.Cl (stereo not drawn) [Ranolazine dihydrochloride] ?
*A* 99.9

*Q* What do we get for CCN(CC)CCOC(=O)C1(C2CCCCC2)CCCCC1.Cl [Dicyclomine hydrochloride] ?
*A* 93.1

*Q* What do we get for Cc1c(C(=O)O)c(O)cc2c1C(=O)c1c(O)c(C3OC(CO)C(O)C(O)C3O)c(O)c(O)c1C2=O (stereo not drawn) ?
*A* 99.8

*Q* What do we get for `COc1cc(-c2oc3cc(O)ccc3c(=O)c2O)ccc1O` ?
*A* 99.4

----------
System: TDF
Test: H1.0 immunofluorescence intensity relative to DMSO (% of DMSO); higher = stronger H1.0 induction, active = 120 or more
Conditions: concentration: 10 µM; 24 h
// allowed return values: active, inactive

Below are worked cases with known answers.
compound="CC(C)NCC(O)COc1cccc2ccccc12 (stereo not drawn) [Propranolol]" class_name=inactive
compound="CCCCCCCCCCCCCCCC(=O)OCC(O)C1OC(=O)C(O)=C1O (stereo not drawn) [Ascorbyl palmitate]" class_name=inactive
compound=C[C@H]1C[C@H]2[C@@H]3CCC4=CC(=O)C=C[C@]4(C)[C@@]3(F)[C@@H](O)C[C@]2(C)[C@@]1(O)C(=O)COP(=O)([O-])[O-].[Na+].[Na+] class_name=inactive
compound="CN1C(=O)CCC1c1cccnc1 (single isomer, unassigned; (-)) [(-)-Cotinine]" class_name=inactive

*Q* I'd appreciate the recorded outcome for Cc1cc(C(C)Nc2ccccc2)c2nc(N3CCOCC3)cc(=O)n2c1 (stereo not drawn) from this test.
*A* inactive

*Q* What do we get for Cc1cn(-c2cc(NC(=O)c3ccc(C)c(Nc4nccc(-c5cccnc5)n4)c3)cc(C(F)(F)F)c2)cn1 [Nilotinib] ?
*A* inactive

*Q* What do we get for O=C1[N-]C(=O)C(c2ccccc2)(c2ccccc2)N1.[Na+] [Phenytoin sodium] ?
*A* inactive

*Q* What do we get for O=C(Nc1ccc(Cl)cc1)C1CCCN(C(=O)c2cccc(-c3ccco3)c2)C1 (stereo not drawn) ?
*A* inactive

*Q* What do we get for `CC1=C(C)C(=O)C(CCCCC#CCCCC#CCO)=C(C)C1=O` ?
*A* inactive

*Q* What do we get for CCN1CCCC1CNC(=O)c1c(O)c(Cl)cc(Cl)c1OC (stereo not drawn) [S(-)-Raclopride] ?
*A* inactive

*Q* What do we get for `O=C(CCCCCCC(=O)Nc1ccccc1)NO` ?
*A* active

*Q* What do we get for `CC(=O)ONC1=c2ccccc2=NC1=C1C(=O)Nc2cc(Br)ccc21` ?
*A* inactive

----------
System: TDF
Test: H1.0 immunofluorescence intensity relative to DMSO (% of DMSO); higher = stronger H1.0 induction, active = 120 or more
Settings: concentration: 10 µM; 24 h
H1.0 immunofluorescence intensity reference
Reply with just the number.

compound="COc1ccc(-c2cc(C(O)C3CCCCN3)c3ccccc3n2)cc1.Cl.Cl (stereo not given)" result_number=169

*Q* Which H1.0 immunofluorescence intensity reading was recorded for the compound Cc1ccccc1N1C(=O)c2cc(S(N)(=O)=O)c(Cl)cc2NC1C (stereo not given) ?
*A* 89.8

*Q* What do we get for CCCCCC=CCC=CCCCCCCCC(=O)O [9(E),12(E)-Octadecadienoic acid] ?
*A* 100

*Q* What do we get for COc1cc2c(CCNC(C)=O)c[nH]c2cc1O [6-Hydroxymelatonin] ?
*A* 91.4

*Q* What do we get for COc1ccccc1OCCNCC(O)COc1cccc2[nH]c3ccccc3c12 (stereo not given) ?
*A* 99.3

----------
Test system: HCC1569
Assay: cell number relative to DMSO (% of DMSO); higher = more cells (less growth inhibition / toxicity)
Settings: concentration: 10 µM; 24 h
ATTRIBUTE MEASURED: cell number
Reply with just the number.

compound=N#Cc1c(N(CC(=O)[O-])CC(=O)[O-])sc(C(=O)[O-])c1CC(=O)[O-].[Sr+2].[Sr+2] result_number=100
compound="CC(=O)C1CCC2C3CC=C4CC(O)CCC4(C)C3CCC12C (centres undefined)" result_number=102
compound="CCCCCC#CCC#CCC#CCC#CCCCC(=O)O [5,8,11,14-Eicosatetraynoic acid]" result_number=105

From here, focus on the item given below.
*Q* Which cell number reading was recorded for the compound O=C(COc1ccc(C(=O)c2ccccc2)cc1)NC1CCN(Cc2ccccc2)CC1 [2-(4-benzoylphenoxy)-N-(1-benzyl-4-piperidinyl)acetamide] ?
*A* 81.9

----------
System: HCC1569
Assay: H1.0 immunofluorescence intensity relative to DMSO (% of DMSO); higher = stronger H1.0 induction, active = 140 or more
Settings: concentration: 10 µM; 24 h
H1.0 immunofluorescence intensity reference

*Q* Which H1.0 immunofluorescence intensity reading was recorded for the compound CCCCCC=CCC=CC=CC=CCC(=O)CCCC(=O)O [5-Ketoeicosatetraenoic acid] ?
*A* 96.5 (inactive)

*Q* What do we get for CCN1CCN(C(=O)NC(C(=O)NC2C(=O)N3C(C(=O)O)=C(CSc4nnnn4C)CSC23)c2ccc(O)cc2)C(=O)C1=O (stereo not given) [Cefoperazone acid] ?
*A* 102 (inactive)

*Q* What do we get for Cn1c(=O)c2[nH]cnc2n(C)c1=O [Theophylline] ?
*A* 103 (inactive)

*Q* What do we get for N#CC(=Cc1ccc(O)c(O)c1)C(=O)NCCCc1ccccc1 [Tyrphostin AG 555] ?
*A* 107 (inactive)

*Q* What do we get for `CCOP(=O)(OCC)C(=Cc1cc(C(C)(C)C)c(O)c(C(C)(C)C)c1)P(=O)(OCC)OCC` ?
*A* 124 (inactive)

----------
System: HCC1569
Test: cell number relative to DMSO (% of DMSO); higher = more cells (less growth inhibition / toxicity)
Conditions: concentration: 10 µM; 24 h
ATTRIBUTE MEASURED: cell number
Reply with just the number.

*Q* Which cell number reading was recorded for the compound Cc1c(C)c2c(c(C)c1OC(=O)CCC(=O)O)CCC(C)(CCCC(C)CCCC(C)CCCC(C)C)O2 (stereo not drawn) [Tocopherol succinate] ?
*A* 98.1

*Q* What do we get for Cn1nc2c3c(cccc31)C(=O)c1ccccc1-2 [JNK Inhibitor, Negative Control] ?
*A* 102

*Q* What do we get for `O=C(Nc1cc(Cl)cc2c1[nH]c1cnccc12)c1cccnc1` ?
*A* 98.7

*Q* What do we get for CC(=O)OC1CCC2(C)C(C1)C(OC(C)=O)CC1C2CC2C3CN4CC(C)CCC4C(C)C3CCC21O (stereo not drawn) ?
*A* 101

*Q* What do we get for O=C(NC(NC(=S)Nc1ccc(F)c([N+](=O)[O-])c1)C(Cl)(Cl)Cl)C(c1ccccc1)c1ccccc1 (stereo not drawn) [ATM/ATR Kinase Inhibitor] ?
*A* 62.4

*Q* What do we get for `CCCCCC=CCC=CCC=CCC=CCCCC(=O)O` ?
*A* 104

*Q* What do we get for Nc1ccn(C2OC(CO)C(O)C2(F)F)c(=O)n1 (stereo not drawn) ?
*A* 74.8

*Q* What do we get for CC(C=CC1=C(C)CCCC1(C)C)=CC=CC(C)=CC(=O)O [9-cis Retinoic acid] ?
*A* 105
